Data provenance: patent US20040018971A1

targetDesc: T1, HLA-A*0201 (human)
T1 construct: also called HLA-A2.1
assayText: inhibition of 125I-labelled standard peptide binding to purified HLA, gel filtration; ratio = IC50 of standard / IC50 of test peptide
Listing: relative binding ratio of selected binders

Reference set, count: 3
[[record]]
binder = "RLPQPPICT [HER2/neu peptide, position 940, 9 amino acids]"
quantitykind = "relative binding ratio"
observed = "0.0002 ratio to standard peptide"

[[record]]
binder = "TAPLQPEQL [HER2/neu peptide, position 389, 9 amino acids]"
quantitykind = "relative binding ratio"
observed = "0.0002 ratio to standard peptide"

[[record]]
binder = "SAVVGILLVV [HER2/neu peptide, position 656, 10 amino acids]"
quantitykind = "relative binding ratio"
observed = "0.0009 ratio to standard peptide"


-- ask Form field: reported relative binding ratio of RLVHRDLAA [HER2/neu peptide, position 840, 9 amino acids]
-- reply 0.0001 ratio to standard peptide
